# System: MDA-MB-231 human breast cancer cells
# test: Membrane Invasion Culture System (MICS) chemo-invasion assay
# Type: cell-based
# test-conditions: 1 ug/mL; 24 hours; + = increased invasiveness
Would you kindly list percent inhibition, MDA-MB-231 (Breast) for each of these compounds?
Numeric answer only, unit % assumed.

[ask] Return reported percent inhibition, MDA-MB-231 (Breast); argument: CN(C)C1C(O)=C(C(N)=O)C(=O)C2(O)C(O)=C3C(=O)c4c(O)c(Br)cc(Br)c4CC3CC12 (stereo not drawn)
[reply] 4

[ask] Return reported percent inhibition, MDA-MB-231 (Breast); argument: CC1c2ccc([N+]#N)c(O)c2C(=O)C2=C(O)C3(O)C(=O)C(C(N)=O)=C(O)C(N(C)C)C3C(O)C21 (stereo not drawn)
[reply] 6

[ask] Return reported percent inhibition, MDA-MB-231 (Breast); argument: CC1c2c([N+]#N)cc(C(C)(C)C)c(O)c2C(=O)C2=C(O)C3(O)C(=O)C(C(N)=O)=C(O)CC3C(O)C21 (stereo not drawn)
[reply] 7

###

# Tested on: PC-3 ML human prostate cancer cells
# test: Membrane Invasion Culture System (MICS) chemo-invasion assay
# Assay type: cell-based
# test-conditions: 1 ug/mL; 24 hours; + = increased invasiveness
# Text: Another objective was to analyze the effects of specific, tetracycline derived compounds on the in-vitro chemo-invasive potential of: • C8161 human melanoma cells • MDA-MB-231 human breast cancer cells • PC3 human prostate cancer cells • RPM18226 human myeloma cancer cells • Ark human myeloma cancer cells • Arp-1 human myeloma cancer cells […]
property-label: percent inhibition, PC-3 ML (Prostrate) (%)
Numeric answer only, unit % assumed.

[ask] Find percent inhibition, PC-3 ML (Prostrate) (PC-3 ML human prostate cancer cells) for the entry CN(C)c1cc([N+](=O)[O-])c(O)c2c1CC1CC3C(N(C)C)C(O)=C(C(N)=O)C(=O)C3(O)C(O)=C1C2=O (stereo not shown)
[reply] 10

[ask] Find percent inhibition, PC-3 ML (Prostrate) (PC-3 ML human prostate cancer cells) for the entry CC1c2cccc(O)c2C(=O)C2=C(O)C3(O)C(=O)C(C(N)=O)=C(O)C([N+](C)(C)C)C3C(O)C21.[I-] (stereo not shown)
[reply] 20

[ask] Find percent inhibition, PC-3 ML (Prostrate) (PC-3 ML human prostate cancer cells) for the entry CC1c2ccc([N+]#N)c(O)c2C(=O)C2=C(O)C3(O)C(=O)C(C(N)=O)=C(O)CC3C(O)C21.O=S(=O)([O-])O (stereo not shown)
[reply] 11

[ask] Find percent inhibition, PC-3 ML (Prostrate) (PC-3 ML human prostate cancer cells) for the entry CN(C)c1cc(N)c(O)c2c1CC1CC3C(N(C)C)C(O)=C(C(N)=O)C(=O)C3(O)C(O)=C1C2=O (stereo not shown)
[reply] 0

[ask] Find percent inhibition, PC-3 ML (Prostrate) (PC-3 ML human prostate cancer cells) for the entry CC1c2c(N)cc(C(C)(C)C)c(O)c2C(=O)C2=C(O)C3(O)C(=O)C(C(N)=O)=C(O)CC3C(O)C21.O=S(=O)(O)O (stereo not shown)
[reply] 4

###

Would you kindly list percent inhibition, ARK for each of these compounds?
# Test system: Ark human myeloma cancer cells
# test: Membrane Invasion Culture System (MICS) chemo-invasion assay
# Format: cell-based
# test-conditions: 1 ug/mL; 24 hours; + = increased invasiveness
Counter-ions that a name gives are not always drawn.

[ask] Find percent inhibition, ARK (Ark human myeloma cancer cells) for the entry CC1c2ccc(N=[N+]=[N-])c(O)c2C(=O)C2=C(O)C3(O)C(=O)C(C(N)=O)=C(O)C(N(C)C)C3C(O)C21 (stereo not drawn)
[reply] 12%

[ask] Find percent inhibition, ARK (Ark human myeloma cancer cells) for the entry CN(C)c1cc([N+]#N)c(O)c2c1CC1CC3C(N(C)C)C(O)=C(C(N)=O)C(=O)C3(O)C(O)=C1C2=O (stereo not drawn) [Compound 9, HCL]
[reply] 17^B percent

[ask] Find percent inhibition, ARK (Ark human myeloma cancer cells) for the entry CN(C)C1C(O)=C(C(N)=O)C(=O)C2(O)C(O)=C3C(=O)c4c(O)c(Br)cc(Br)c4CC3CC12 (stereo not drawn)
[reply] 2%

[ask] Find percent inhibition, ARK (Ark human myeloma cancer cells) for the entry CC1c2ccc(N)c(O)c2C(=O)C2=C(O)C3(O)C(=O)C(C(N)=O)=C(O)C(N(C)C)C3C(O)C21 (stereo not drawn)
[reply] 20^B percent

[ask] Find percent inhibition, ARK (Ark human myeloma cancer cells) for the entry CN(C)c1cc(N=[N+]=[N-])c(O)c2c1CC1CC3C(N(C)C)C(O)=C(C(N)=O)C(=O)C3(O)C(O)=C1C2=O (stereo not drawn)
[reply] 6%

[ask] Find percent inhibition, ARK (Ark human myeloma cancer cells) for the entry CC(C)Nc1ccc2c(c1O)C(=O)C1=C(O)C3(O)C(=O)C(C(N)=O)=C(O)C(N(C)C)C3C(O)C1C2C (stereo not drawn)
[reply] +11%
